Reference source: patent US12459951B2

system: KRas wild type; experiment: Ras GTP Binding Domain Inhibition Assay (Ras Superfamily Assay); conditions: 20 μM compound, without SOS
readout_kind: KRas wild type: % inh.

GET /values?readout=KRas wild type: % inh.&item= Cc1c(-c2ccn(C(C)C)n2)cn2nc(-c3nccn3C)nc(Nc3ccncc3)c12 [Compound 52]
0 (0 = 0% inhibition)

Lookup CO[C@H]1C[C@H](Nc2nc(-c3nccn3C)nn3cc(-c4ccncc4)c(C)c23)C1 [Compound 159]
A (A = 1-25% inhibition)

Lookup COc1cccc(Nc2nc(-c3ccccn3)nn3cc(-c4ccn(C(C)C)n4)c(C)c23)n1 [Compound 14]
0 (0 = 0% inhibition)

Lookup CO[C@H]1CC[C@@H](Nc2nc(-c3nccn3C)nn3cc(-c4cccnc4)c(C)c23)C1 (racemic) [Compound 155]
A (A = 1-25% inhibition)

Lookup COCC1CCN(c2nc(-c3nccn3C)nn3cc(-c4ccn(C(C)C)n4)c(C)c23)C1 (racemic) [Compound 2]
0 (0 = 0% inhibition)

Could you now look at the following molecule, please?
GET /values?readout=KRas wild type: % inh.&item= Cc1c(-c2ccn(C)n2)cn2nc(-c3nccn3C)nc(Nc3cc(OC4CC4)ccn3)c12 [Compound 126]
A (A = 1-25% inhibition)
